Source: ChEMBL document CHEMBL1697681

test system: Phospholipidosis; assay: Literature-mined public compounds from Lowe et al phospholipidosis modelling dataset
reported-property: Phospholipidosis

[
  {
    "compound": "C#C[C@]1(O)CC[C@H]2[C@@H]3CCc4cc(O)ccc4[C@H]3CC[C@@]21C [ETHINYL ESTRADIOL]",
    "reported-property": "Phospholipidosis",
    "recorded-result": "Negative"
  },
  {
    "compound": "ClC(Cl)Cl [CHLOROFORM]",
    "reported-property": "Phospholipidosis",
    "recorded-result": "Negative"
  },
  {
    "compound": "CC1COc2c(N3CCN(C)CC3)c(F)cc3c(=O)c(C(=O)O)cn1c23 (stereo not given) [OFLOXACIN]",
    "reported-property": "Phospholipidosis",
    "recorded-result": "Negative"
  },
  {
    "compound": "CC1(C)OC[C@H]([C@@H](CS(=O)(=O)c2ccc(Oc3ccc(OC(F)(F)F)cc3)cc2)N(O)C=O)O1",
    "reported-property": "Phospholipidosis",
    "recorded-result": "Negative"
  }
]
